Cited source: the supplement of paper PMC10307832

Each entry below carries its reported relative viability.
Tested on: NCI-H2087
Assay: relative viability (nuclei count vs DMSO), 5 days (fraction); higher = more cells survive
Settings: first compound 0.1581 µM
MEASURED_PARAMETER: relative viability

{"columns": ["COMPOUND", "TESTED_SYSTEM", "MEASURED_PARAMETER", "RESULT"],
 "data": [
  ["COc1cc2nccc(Oc3ccc(NC(=O)Nc4cc(C)on4)c(Cl)c3)c2cc1OC [Tivozanib] + Cc1nc(Nc2ncc(C(=O)Nc3c(C)cccc3Cl)s2)cc(N2CCN(CCO)CC2)n1 [Dasatinib] (partner 0.075 µM)", "NCI-H2087", "relative viability", 0.911],
  ["COc1cc2nccc(Oc3ccc(NC(=O)Nc4cc(C)on4)c(Cl)c3)c2cc1OC [Tivozanib] + CCNC(=O)c1noc(-c2cc(C(C)C)c(O)cc2O)c1-c1ccc(CN2CCOCC2)cc1 [Luminespib] (partner 0.01 µM)", "NCI-H2087", "relative viability", 0.148],
  ["Nc1ccn([C@@H]2O[C@H](CO)[C@@H](O)[C@@H]2O)c(=O)n1 [Cytarabine] + Cc1nc(Nc2ncc(C(=O)Nc3c(C)cccc3Cl)s2)cc(N2CCN(CCO)CC2)n1 [Dasatinib] (partner 0.075 µM)", "NCI-H2087", "relative viability", 0.265],
  ["COc1cc2nccc(Oc3ccc(NC(=O)Nc4cc(C)on4)c(Cl)c3)c2cc1OC [Tivozanib] + C[C@]1(O)C[C@@H](c2nc(-c3ccc4ccc(-c5ccccc5)nc4c3)c3c(N)nccn32)C1 [Linsitinib] (partner 1 µM)", "NCI-H2087", "relative viability", 1.04]
]}
